Literature survey of IC50 (system: Non-receptor tyrosine-protein kinase TYK2 (Homo sapiens, UniProt P29597)).

C[C@H]1CCOCc2cc(ccc2OC2CCCC2)Nc2nccc(n2)-c2ccc(cc2N)C(=O)NC1 : 1 to 10 µM

// map Cc1cnc2nc1NCCCCNC(=O)c1ccc(cc1F)-c1cnc(F)c(c1)N2 to recorded IC50 (system: Non-receptor tyrosine-protein kinase TYK2 (Homo sapiens, UniProt P29597)) 1 to 10 µM

Form field: IC50 recorded for Cn1cc(-c2cc3nccn3c(-c3cnn(C(CC#N)C4CCCC4)c3)n2)cn1 (centres unmarked) with Non-receptor tyrosine-protein kinase TYK2 (Homo sapiens, UniProt P29597) (enter value) < 0.01 µM

Lab note: need IC50 for N#Cc1cccc(F)c1-c1cc(Nc2ccc(C(=O)N3CCOCC3)cc2)c2c(n1)CNC2=O on Non-receptor tyrosine-protein kinase TYK2 (Homo sapiens, UniProt P29597), anyone have it? 0.0242 µM

Lab note: need IC50 for N#CCC(=O)N1CCC[C@@H](Nc2c(-c3cncs3)cnc3[nH]ccc23)C1 on Non-receptor tyrosine-protein kinase TYK2 (Homo sapiens, UniProt P29597), anyone have it? 0.1 to 1 µM

Can you look up IC50 on Non-receptor tyrosine-protein kinase TYK2 (Homo sapiens, UniProt P29597) for Cn1cc(-c2cc3nccn3c(-c3cnn(C4(CC#N)CN(Cc5ccccc5)C4)c3)n2)cn1 ? 0.1 to 1 µM

Which IC50 is reported with Non-receptor tyrosine-protein kinase TYK2 (Homo sapiens, UniProt P29597) for this entry: CCc1ccc(Cl)cc1-c1cc(-c2ncnc3[nH]ccc23)[nH]c1C(N)=O ? 0.009 µM

What is its IC50 for Non-receptor tyrosine-protein kinase TYK2 (Homo sapiens, UniProt P29597)? Entry: C=CC1(n2ccc(-c3nc(-c4cnn(C)c4)cc4nccn34)c2)CN(S(=O)(=O)C(F)(F)F)C1 < 0.01 µM

###

# IC50 against Non-receptor tyrosine-protein kinase TYK2 (Homo sapiens), merged from multiple literature sources

Some solved cases for reference:
NC(=O)c1nc(-c2cccc(O)c2)nc2c1[nH]c(=O)n2[C@H]1CC[C@H](O)CC1 : 10100 to 20000 nM
CCC(CC)n1cc(-c2nc(-c3cnn(C4CS(=O)(=O)C4)c3)cn3nccc23)cn1 : 10 to 100 nM
NC(=O)c1cnc(Nc2ccc3c(c2)NC[C@H](O)CO3)nc1NC1CCOC1 (some centres unmarked) : < 10 nM

Look up IC50 with Non-receptor tyrosine-protein kinase TYK2 (Homo sapiens) for this compound: CCS(=O)(=O)N1CC(CC#N)(n2cc(-c3nc(-c4cnn(C)c4)cn4nccc34)c(N)n2)C1 0.38 nM

# query: IC50 | item Cn1cc(-c2cc3nccn3c(-c3cnn(C(CCO)C4CCCC4)c3)n2)cn1 (centres unmarked) | system: Non-receptor tyrosine-protein kinase TYK2 (Homo sapiens) 100 to 1000 nM

Write down the reported IC50 of CCCS(=O)(=O)N[C@H]1C[C@@H](Nc2c(-c3nnco3)cnc3[nH]ccc23)C1 , test system: Non-receptor tyrosine-protein kinase TYK2 (Homo sapiens). 100 to 1000 nM

Could you share what IC50 was measured for CCOC(=O)Cn1cc(Nc2ncc3ccn(CC4CCS(=O)(=O)CC4)c3n2)cn1 , tested on Non-receptor tyrosine-protein kinase TYK2 (Homo sapiens)? 100 to 1000 nM

Quick check: IC50 on Non-receptor tyrosine-protein kinase TYK2 (Homo sapiens), item NC(=O)c1nc(-c2cccnc2)nc2c1[nH]c(=O)n2[C@H]1CC[C@H](O)CC1 ? 20100 to 30000 nM

###

The compounds below each have a reported pIC50 tested on UniProt P29597; the values come from various publications.
pIC50: −log10 of the molar value.

Below are worked cases with known answers.
CCC(CC)n1cc(-c2nc(-c3cnn(CCN4CCOCC4)c3)cn3nccc23)cn1 : 7.00 to 8.00
Cc1cnc(Nc2ccc3c(c2)CN(C)C3)nc1N1CC(CC#N)(N2CCC(F)CC2)C1 : > 8.00
Cn1cc(-c2cc3nccn3c(-c3cnn(C4(CC#N)CN(c5ncccn5)C4)c3)n2)cn1 : 6.00 to 7.00

Please report the recorded pIC50 for CNC(=O)c1csc(-c2cnc3[nH]ccc3c2N[C@@H]2CCCN(C(=O)CC#N)C2)n1 . 7.00 to 8.00

Given NC(=O)c1cnc(Nc2ccc3c(c2)NC[C@H](O)CO3)nc1Nc1ccc2[nH]ccc2c1 , state its recorded pIC50. > 8.00

GET /values?readout=pIC50&item= CNC(=O)c1n[nH]c2nc(-c3cc(F)c(O)cc3CC(F)(F)F)nc(NCc3ccccc3N(C)S(N)(=O)=O)c12 6.17

Sample CCC(CC)n1cc(-c2nc(-c3cnn([C@H](C)[C@@H](O)CO)c3)cn3nccc23)cn1 (single isomer, unassigned) — what was its pIC50? 7.00 to 8.00

###

pIC50: −log10 of the molar value.
Here, compounds appear alongside pIC50 reported for Non-receptor tyrosine-protein kinase TYK2 (Homo sapiens, UniProt P29597) in the literature.

Cn1cc(-c2cc3nccn3c(-c3ccn([C@H](CCF)[C@H]4CC4(F)F)c3)n2)cn1 : > 8.00
CCCS(=O)(=O)NC(=O)[C@H]1C[C@H](NC(=O)c2nn(C)c3c2CN(c2ncnc4[nH]ccc24)CC3)C1 : < 5.70
CC1CCNC(=O)c2ccc(c(N)c2)-c2ccnc(n2)Nc2ccc(OCC(F)(F)F)c(c2)COC1 (stereo not drawn) : < 5.00
Cc1cnc2nc1Nc1cccc(c1)CCCNC(=O)c1ccc(cc1S(C)(=O)=O)-c1cnc(F)c(c1)N2 : 6.00 to 7.00
COCCN1CCN(C2(CC#N)CN(c3nc(Nc4cc(C)ns4)ncc3C)C2)CC1 : > 8.00

pIC50 for O=C1NCCCCCCOCc2cc(ccc2N2CCOCC2)Nc2nccc(n2)-c2ccc1cc2[N+](=O)[O-] ? < 5.00

Given N#CCC(C1CC1)n1cc(-c2nc(-c3cn[nH]c3)cc3nccn23)cn1 (stereo not drawn) , state its recorded pIC50. 7.00 to 8.00

I would be grateful if you could share the reported pIC50 for NC(=O)c1cnc(Nc2ccc3c(c2)NC[C@H](OCC2CCCCO2)CO3)nc1NC1CC1 (stereo partly drawn) . > 8.00

###

Across several publications, the following IC50 results were reported for Non-receptor tyrosine-protein kinase TYK2 (Homo sapiens).

Worked set:
Cc1cnc2nc1Nc1cc(F)cc(c1)CCNC(=O)c1ccc(cc1S(C)(=O)=O)-c1cnc(F)c(c1)N2 : 0.101 to 1 µM
CNC(=O)c1ccnc(-c2cnc3[nH]ccc3c2N[C@@H]2CCCN(C(=O)CC#N)C2)c1 : 0.1 to 1 µM
Cc1cnc(Nc2cnn(C3CC3)c2)nc1N1CC(CC#N)(N2CCN3C[C@H](F)C[C@H]3C2)C1 : < 0.01 µM

Now consider the entry below.
Which IC50 reading was recorded for the compound CC(C)Oc1ccc2cc1COCCCCNC(=O)c1ccc(c(N)c1)-c1ccnc(n1)N2 ? 1 to 10 µM

###

pIC50 for Non-receptor tyrosine-protein kinase TYK2 (Homo sapiens, UniProt P29597) - collated from the literature.
pIC50: −log10 of the molar value.

Consider the worked cases shown below.
Cc1cnc(-c2cnc3[nH]ccc3c2N[C@H]2C[C@@H](NS(=O)(=O)c3cccc(C#N)c3)C2)s1 : 7.00 to 8.00
CCC(Cn1ccc2cnc(Nc3cnn(CC(=O)OC(C)C(C)O)c3)nc21)C(C)C (centres unmarked) : > 7.00
N#Cc1cccc(S(=O)(=O)N[C@H]2C[C@@H](Nc3c(-c4nncs4)cnc4[nH]ccc34)C2)c1 : ≥ 8.00
Cc1cc(Nc2nc(N[C@@H]3C[C@H]4CC[C@@H](C3)N4C(=O)c3cccnc3)nc3ccccc23)n[nH]1 : 8.32
CCc1cc(O)c(F)cc1-c1cc2[nH]nc(C(=O)NC)c2c(NCc2ccc(O)cc2N(C)S(C)(=O)=O)n1 : 7.72
Cn1cc(-c2cc3nccn3c(-c3ccn(C(CC#N)C4CC4)c3)n2)cn1 (centres unmarked) : > 8.00
CC1(CNC(=O)c2noc3c2CN(c2ncnc4[nH]ccc24)CC3)CC(F)(F)C1 : 5.70 to 6.30

Now examine the next entry.
Form: Entry = CC#CCC(C1CC1)n1cc(-c2nc(-c3cnn(C)c3)cc3nccn23)cn1 (centres unmarked) | System = Non-receptor tyrosine-protein kinase TYK2 (Homo sapiens, UniProt P29597) | pIC50 = ____ 6.00 to 7.00

###

pIC50: −log10 of the molar value.
Study the reported pIC50 values for Non-receptor tyrosine-protein kinase TYK2 (Homo sapiens) given below; they originate from different publications.

Solved cases below.
C=CC(=O)Nc1cc(Nc2ncc(Cl)c(O[C@@H]3CO[C@H]4[C@@H]3OC[C@H]4O)n2)ccc1N1C[C@@H]2C[C@H]1CO2 : 6.83
NC(=O)c1cnc(Nc2ccc3c(c2)NCC(O)CO3)nc1NCc1cccnc1 (stereo not drawn) : > 8.00
C[C@@H](O)C[C@H](C1CC1)n1cc(-c2nc(-c3cnn(C)c3)cc3nccn23)cn1 : 6.00 to 7.00
CC1CCOCc2cc(ccc2OC2CCCC2)Nc2nccc(n2)-c2ccc(cc2N)C(=O)NC1 (stereo not drawn) : 5.00 to 6.00

Given the compound COc1cccc(F)c1COc1ccc2cc1COCCCCNC(=O)c1ccc(c([N+](=O)[O-])c1)-c1ccnc(n1)N2 , what is its reported pIC50? < 5.00

# get_value(readout='pIC50', item= CCC(CC)n1cc(-c2nc(-c3cnn(C4CN(S(C)(=O)=O)C4)c3)cn3nccc23)cn1 ) 7.00 to 8.00

Which pIC50 reading was recorded for the compound N#CCC(=O)N1CCC[C@@H](Nc2c(-c3ccsn3)cnc3[nH]ccc23)C1 ? ≥ 8.00

I would be grateful if you could share the reported pIC50 for CC(C)n1cc(-c2cc3nccn3c(-c3cnn(C4(CC#N)CN(CC(F)(F)F)C4)c3)n2)cn1 . > 8.00

Record request: pIC50 value, item O=C1NCCCCCNc2nc(ncc2F)Nc2cc(cnc2F)-c2ccc1cc2 < 5.00

Requested field: pIC50. Item: NC(=O)c1cnc(Nc2ccc3c(c2)NC[C@H](O)CO3)nc1NC1C2CC3CC1CC(O)(C3)C2 (stereo partly drawn) > 8.00

State the recorded pIC50 for this entry: CCc1cc(O)c(F)cc1-c1cc2[nH]nc(C(=O)NC)c2c(NCc2c(F)cccc2N(C)S(C)(=O)=O)n1 8.24
